Experiment: Tolerability in Sprague-Dawley rats: body weight and organ weight (Example 35)
Assay type: in vivo
Conditions: 50 mg/kg s.c. twice per week for 6 weeks, percent change over the weights at the start of the study
Measured parameter: Percent change: Body weight (%)
// units = %; emit number, no label

Substance: 416892 (antisense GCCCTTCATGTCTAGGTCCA; 3-14-3 chimeric gapmer, further chemistry not given here) [compound 416892]
Units symbol: %
Observed measurement: −39

Substance: 417003 (antisense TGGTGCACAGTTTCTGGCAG; 2-13-5 gapmer chemistry, further chemistry not given here) [compound 417003]
Units symbol: %
Observed measurement: −40

Moving on to another substance below.
Ask: What value of Percent change: Body weight has been reported for the following substance? 416858 (antisense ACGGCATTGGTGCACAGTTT; 5-10-5 gapmer, further chemistry not given here) [compound 416858]
Reply: −21

---

Test system: IL-1β, IL-6, IFN-γ, TNF-α, IL-8, MIP-1α, MCP-1, MIP-1β, RANTES
Experiment: Cytokine and chemokine assays in cynomolgus monkeys (Example 46)
Format: in vivo
Settings: day 55
Strand notation (5' to 3'): a small letter for the sugar, then the base; units joined by * are phosphorothioate-linked, units joined directly phosphodiester-linked; [ ] holds rarer units or linkages, { } end groups; capitals alone tell only the bases. e = 2'-O-(2-methoxyethyl) (MOE); [5mC] = 5-methylcytosine; d = 2'-deoxy (DNA)
# IL-8 level values compiled below
// units = pg/mL; emit number, no label

Ask: Form entry - test system: IL-1β, IL-6, IFN-γ, TNF-α, IL-8, MIP-1α, MCP-1, MIP-1β, RANTES; read-out: IL-8 level; substance: ISIS 416858: MOE gapmer, nucleobases 1275 to 1318 of SEQ ID NO: 1 (Table 8) (antisense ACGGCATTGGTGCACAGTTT; MOE gapmer, wing and gap sizes not given here)
Reply: 167

Ask: Form entry - test system: IL-1β, IL-6, IFN-γ, TNF-α, IL-8, MIP-1α, MCP-1, MIP-1β, RANTES; read-out: IL-8 level; substance: ISIS 449708: 3-8-3, 4-8-4, 2-10-2, 3-10-3 or 4-10-4 MOE microwalk gapmer (Table 46) (antisense eA*e[5mC]*eA*dG*dT*dT*dT*d[5mC]*dT*dG*dG*e[5mC]*eA*eG)
Reply: 85

Ask: Form entry - test system: IL-1β, IL-6, IFN-γ, TNF-α, IL-8, MIP-1α, MCP-1, MIP-1β, RANTES; read-out: IL-8 level; substance: ISIS 449709: 3-8-3, 4-8-4, 2-10-2, 3-10-3 or 4-10-4 MOE microwalk gapmer (Table 46) (antisense eG*e[5mC]*eA*e[5mC]*dA*dG*dT*dT*dT*d[5mC]*dT*dG*dG*d[5mC]*eA*eG*eG*e[5mC])
Reply: 254

Ask: Form entry - test system: IL-1β, IL-6, IFN-γ, TNF-α, IL-8, MIP-1α, MCP-1, MIP-1β, RANTES; read-out: IL-8 level; substance: ISIS 416850: MOE gapmer, nucleobases 1275 to 1318 of SEQ ID NO: 1 (Table 8) (antisense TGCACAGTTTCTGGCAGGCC; MOE gapmer, wing and gap sizes not given here)
Reply: 620

---

# RBC count values compiled below
Assay: Hematology assays in cynomolgus monkeys (Example 45)
Format: in vivo
Conditions: day 15; escalating dose regimen
// units = µL⁻¹; emit number, no label

Substance: ISIS 416858: MOE gapmer, nucleobases 1275 to 1318 of SEQ ID NO: 1 (Table 8) (antisense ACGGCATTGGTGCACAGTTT; MOE gapmer, wing and gap sizes not given here)
Observed measurement: 5.4e+06
//
Substance: ISIS 417002: MOE gapmer, nucleobases 1275 to 1318 of SEQ ID NO: 1 (Table 8) (antisense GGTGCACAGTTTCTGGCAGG; MOE gapmer, wing and gap sizes not given here)
Observed measurement: 5.4e+06

Ask: What value of RBC count has been reported for the following substance? ISIS 416864: MOE gapmer, nucleobases 1275 to 1318 of SEQ ID NO: 1 (Table 8) (antisense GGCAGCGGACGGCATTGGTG; MOE gapmer, wing and gap sizes not given here)
Reply: 5.7e+06

Ask: What value of RBC count has been reported for the following substance? ISIS 416850: MOE gapmer, nucleobases 1275 to 1318 of SEQ ID NO: 1 (Table 8) (antisense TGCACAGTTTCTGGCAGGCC; MOE gapmer, wing and gap sizes not given here)
Reply: 5.3e+06

Ask: What value of RBC count has been reported for the following substance? ISIS 416838: MOE gapmer, nucleobases 1018 to 1042 of SEQ ID NO: 1 (Table 6) (antisense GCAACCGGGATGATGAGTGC; MOE gapmer, wing and gap sizes not given here)
Reply: 5.6e+06
